Give T/C for every item shown.
# Tested on: P388 leukemia ip, CD2F1 mice, survival T/C
# test: NCI In Vivo Anticancer Drug Screen. Data for tumor model P388 Leukemia (intraperitoneal) in CD2F1 (CDF1) mice
# experimental-setup: endpoint: median survival time; dose: 100.0 mg/kg/injection; schedule: Q01DX009 (ip); vehicle: saline with Tween-80; higher = longer survival
Inconclusive results and toxic doses are left out.

Exercise: Look at this compound and give its reported T/C. O=C1CCC(=O)N1CNCCc1cc(Cl)cc(Cl)c1O
Solution: 103 % of control

Exercise: Look at this compound and give its reported T/C. CC1CN(C(=O)Nc2c(C(C)C)cccc2C(C)C)CC(C)O1 (centres undefined)
Solution: 90 % of control

Exercise: Look at this compound and give its reported T/C. Cc1ccc(S(=O)(=O)NC(=O)c2ccccc2)cc1
Solution: 100 % of control

Exercise: Look at this compound and give its reported T/C. COc1cc(-c2ccc(NC(=O)Nc3nccs3)c(OC)c2)ccc1NC(=O)Nc1nccs1
Solution: 98 % of control

Exercise: Look at this compound and give its reported T/C. COP(=O)(CC(=O)NCc1cc(C(C)(C)C)c(O)c(C(C)(C)C)c1)OC
Solution: 103 % of control

Exercise: Look at this compound and give its reported T/C. O=[N+]([O-])c1cccc(/C=C/C=C/c2ccc(Cl)c(S(=O)(=O)F)c2)c1
Solution: 86 % of control

Exercise: Look at this compound and give its reported T/C. COc1ccc(CCNC(=O)Cc2ccc(OC)c(OC)c2)cc1OC
Solution: 100 % of control

Exercise: Look at this compound and give its reported T/C. CCOC(=O)/C(C#N)=C\c1ccc(/C=C(\C#N)C(=O)OCC)cc1
Solution: 90 % of control

Exercise: Look at this compound and give its reported T/C. C(#CP(C#Cc1ccccc1)C#Cc1ccccc1)c1ccccc1
Solution: 92 % of control

Exercise: Look at this compound and give its reported T/C. NS(=O)(=O)c1cc([N+](=O)[O-])ccc1Cl
Solution: 100 % of control

Exercise: Look at this compound and give its reported T/C. O=[N+]([O-])c1ccc(Sc2ccncn2)c([N+](=O)[O-])c1
Solution: 116 % of control

Exercise: Look at this compound and give its reported T/C. CCC(=O)c1ccc(O)c(O)c1
Solution: 105 % of control

Exercise: Look at this compound and give its reported T/C. CCc1ccccc1N1CCN(C(=O)c2cc(OC)c(OC)c(OC)c2)CC1
Solution: 115 % of control

Exercise: Look at this compound and give its reported T/C. O=C1OCC(C(=O)N2Cc3cc4ccccc4nc3C2)C1CO (centres undefined)
Solution: 94 % of control

Exercise: Look at this compound and give its reported T/C. CCCCCCCCSP(SCCCCCCCC)SCCCCCCCC
Solution: 106 % of control

Exercise: Look at this compound and give its reported T/C. CC(C)=C(OS(=O)(=O)C(F)(F)F)[Si](C)(C)C
Solution: 105 % of control

Exercise: Look at this compound and give its reported T/C. CNC(=O)Nc1nccs1
Solution: 96 % of control

Exercise: Look at this compound and give its reported T/C. O=C1NC(=O)C2(CCCc3ccc([N+](=O)[O-])cc32)N1 (centres undefined)
Solution: 99 % of control

Exercise: Look at this compound and give its reported T/C. CCC(C)Sc1nc(N)nc2c1ncn2C1OC(CO)C(O)C1O (centres undefined)
Solution: 95 % of control

Exercise: Look at this compound and give its reported T/C. OC1(c2ccccc2)c2ccc(Br)cc2-c2cc(Br)ccc21
Solution: 101 % of control

Exercise: Look at this compound and give its reported T/C. O=[N+]([O-])c1ccc(CSC(=S)Nc2ccc(Cl)c(Cl)c2)cc1
Solution: 115 % of control

Exercise: Look at this compound and give its reported T/C. CCCCCCCCCCCCSC(SCCCCCCCCCCCC)SCCCCCCCCCCCC
Solution: 106 % of control

Exercise: Look at this compound and give its reported T/C. CC1(c2ccc(Cl)cc2)OC(=O)C(=Cc2ccc([N+](=O)[O-])s2)C(=O)O1 (centres undefined)
Solution: 122 % of control

Exercise: Look at this compound and give its reported T/C. COc1cc(C(=O)n2ncc(C(C)=O)c2C)cc(OC)c1OC
Solution: 106 % of control

// provenance: PubChem BioAssay AID330
